# EXPERIMENTAL PROTOCOL: yeast display, Sf9 membrane polyspecificity reagent, FACS + sequencing; frameworks hold sequencing errors
MEASURED PARAMETER: polyreactivity (PSR sort gate)

Worked cases, answers included:
>  <QUERY SEQUENCE>
QVQLVDSGGGLVQAGGTLRLSCAATGRTVSKYAMGWYRQAPGKERELVAAITRSGGRTYYADSVKGRFTISRDNAKNTVYLQMNSLKPEDTAVYYCARTTNQHTLATEDDYWGQGTQVTVSS

>  <TEST RESULT>
high polyreactivity

$$$$
>  <QUERY SEQUENCE>
QVQLVESGGGLVQAGGSLRLSCAASGLILSSNAMGWYRQAPGKERELVAAITWDGDRTYADSVKGRFTISRDNAKNTVYLQMNSLKPEDTAVYYCAAPSYVSYDSEFGYWGQGTQVTVSS

>  <TEST RESULT>
low polyreactivity

$$$$
>  <QUERY SEQUENCE>
QVQLVESGGGLVQAGGSLRLSCAASGLIFIAYAMGWYRQAPGKEREFVAAITWNGVSTYYADSVKGRFTISRDNAKNTVYLQMNSLKPEDTAVYYCNADYVFSPWAYEYWGQGTQVTVSS

>  <TEST RESULT>
high polyreactivity

$$$$
>  <QUERY SEQUENCE>
QVQLVESGGGLVQAGGSLRLSCAASGSISYFYAMGWYRQAPGKERELVADINSGDDTYADSVKGRFTISRDNAKNTVYLQMNSLKPEDTAVYYCSVKYGGYESHYYRRPHYDYWGQGTQVTVSS

>  <TEST RESULT>
low polyreactivity

$$$$
>  <QUERY SEQUENCE>
QVQLVESGGGLVQAGGSLRLSCAASGRTFYRNAMGWYRQAPGKERELVAAISWSGGRTFYADSVKGRFTISRDNAKNTVYLQMNSLKPEDTAVYYCAKTYTTPGYYRYDYWGQGTQVTVSS

>  <TEST RESULT>
high polyreactivity

$$$$
>  <QUERY SEQUENCE>
QVQLVESRGCLVQAGGSLRLSCAASGSIFVNNAMGWYRPAPGYERELCAAITSGTRTNYADSVKGRFTISRDNAKNTVYLQMNSLKPEDTAVYYCATESAQYSWYYPGHPGYGYWGQGSQVTVSS

>  <TEST RESULT>
low polyreactivity

$$$$
>  <QUERY SEQUENCE>
QVQLVESGGGLVQAGGSLRLSCAASGSIFTTYAMGWYRQAPGKERELVATITSSDSTNYADSVKGRFTISRDNAKNTVYLQMNSLKPEDTAVYYCNAGGDRTVSVAWYSADDYWGQGTQVTVSS

>  <TEST RESULT>
low polyreactivity

$$$$
>  <QUERY SEQUENCE>
QVQLVESGGGLVQAGGSLRLSCAASGYIFVRNAMGWYRQAPGKERELVAAISRTDGTTYYADSVKGRFTISRDNAKNTVYLQMNSLKPEDTAVYYCAADYLRAPYYQYEYWGQGTQVTVSS

>  <TEST RESULT>
low polyreactivity

$$$$
>  <QUERY SEQUENCE>
QVKLEESGGGLVQEGGSLRISCAASVRIFGNYSMGWSRQAPGKEMELVAAIDLSGDSTYYADSVKGRFTISRDNAKNTVYLQMNSLKPEDTAVYYCAATDWFSEYYWGQATQVTVSS

>  <TEST RESULT>
low polyreactivity

$$$$
>  <QUERY SEQUENCE>
QVQLVESGGGLVQAGGSLRLSCAASGFTFIPNAMGWYRQAPGKERELVADITWSGGTTYYADSVKGRFTISRDNAKNTVYLQMNSLKPEDTAVYYCNADYLFYAFDYWGQGTQVTVSS

>  <TEST RESULT>
low polyreactivity

$$$$

Retrieve polyreactivity (PSR sort gate) measured for `QVQLVESGGGVVQARGSLRLSCAASGRIFDNAMGWYRQAPGKERELVAAISGGSTYYADSVKGRFTISRDNAKNTVYLQMHSLKPEDTAVYYCNTDPLGRTVVYGGDDYWGQGTQVTVSS` and print it.
low polyreactivity

Determine its reported polyreactivity (PSR sort gate): `QVQLEDSGGGLVQAGGSLPLSCAASGSIFVQYDMGWYIQAPGKERELVAAINDSGDITYYADSVKARFTISRDNAKNTIYLQMNSLKPEDTAVYYCAASAAYYGFYKSVTYDYWGQGTQVTVSS`
low polyreactivity
